# TARGET: KRAS Q61H (Homo sapiens, UniProt P01116+P62937, Q61H)
# Sequence (P01116 1-169 isoform P01116-2 Q61H limits assumed): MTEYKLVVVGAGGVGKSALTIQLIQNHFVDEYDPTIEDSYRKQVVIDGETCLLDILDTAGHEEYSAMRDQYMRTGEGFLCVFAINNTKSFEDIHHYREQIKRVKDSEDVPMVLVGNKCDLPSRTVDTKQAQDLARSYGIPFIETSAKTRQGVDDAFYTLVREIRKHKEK
# Sequence (P62937 whole entry): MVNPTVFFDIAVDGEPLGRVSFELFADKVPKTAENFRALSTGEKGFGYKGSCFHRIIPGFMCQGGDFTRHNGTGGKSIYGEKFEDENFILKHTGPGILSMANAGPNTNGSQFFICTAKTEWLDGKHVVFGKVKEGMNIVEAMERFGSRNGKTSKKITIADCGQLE
# ASSAY_DETAILS: Disruption of BRAF RBD interaction with Ras (FRET / MOA assay, with Cyclophilin A)
# Assay type: biochemical
# RUN_PARAMETERS: KRAS Q61H; read-out: KRAS Q61H FRET data IC50
RECORDED_ENDPOINT: IC50

compound="CCn1c(-c2cccnc2[C@H](C)OC)c2c3cc(ccc31)-c1csc(n1)C[C@H](NC(=O)[C@H](C(C)C)N(C)C(=O)N1CCN(C(=O)C3COC3)CC1)C(=O)N1CCC[C@H](N1)C(=O)OCC(C)(C)C2 (atropisomer, axis not shown)" value_observed="10 to 100 nM"
compound=CCn1c(-c2cccnc2[C@H](C)OC)c2c3cc(ccc31)-c1cc(O)cc(c1)C[C@H](NC(=O)[C@H](C(C)C)N(C)C(=O)[C@@H]1OCC[C@@H]1c1ccccc1)C(=O)N1CCC[C@H](N1)C(=O)OCC(C)(C)C2 value_observed="< 10 nM"
compound="CCn1c(-c2cccnc2[C@H](C)OC)c2c3cc(ccc31)-c1csc(n1)C[C@H](NC(=O)[C@H](C(C)C)N(C)C(=O)N1CCN(C(=O)[C@H]3CCCN3C)CC1)C(=O)N1CCC[C@H](N1)C(=O)OCC(C)(C)C2 (atropisomer, axis not shown)" value_observed="10 to 100 nM"
compound=CCn1c(-c2cccnc2[C@H](C)OC)c2c3cc(ccc31)-c1csc(n1)C[C@H](NC(=O)[C@H](C(C)C)N(C)C(=O)N1CC3(CN(C)CCO3)C1)C(=O)N1CCC[C@H](N1)C(=O)OCC(C)(C)C2 value_observed="100 to 1000 nM"
compound=CCn1c(-c2cccnc2[C@H](C)OC)c2c3cc(ccc31)-c1csc(n1)C[C@H](NC(=O)[C@H](C(C)C)N(C)C(=O)N1CC(OC)C1)C(=O)N1CC[C@H](C)[C@H](N1)C(=O)OCC(C)(C)C2 value_observed="100 to 1000 nM"
compound="CCn1c(-c2cccnc2[C@H](C)OC)c2c3cc(ccc31)-c1cc(O)cc(c1)C[C@H](NC(=O)[C@H](C(C)C)N(C)C(=O)C1(C#N)CC1)C(=O)N1CCC[C@H](N1)C(=O)OCC(C)(C)C2 (racemic)" value_observed="< 10 nM"
compound=C=CC(=O)N1CC[C@H](C(=O)N(C)[C@H](C(=O)N[C@H]2Cc3cc(O)cc(c3)-c3ccc4c(c3)c(c(-c3cncc(COC)c3)n4CC)CC(C)(C)COC(=O)[C@@H]3CCCN(N3)C2=O)C(C)C)C1 value_observed="100 to 1000 nM"
compound=CCn1c(-c2cccnc2[C@H](C)OC)c2c3cc(ccc31)-c1csc(n1)C[C@H](NC(=O)[C@H](C(C)C)N(C)C(=O)N1[C@@H](C)CN(C)C[C@@H]1C)C(=O)N1CCC[C@H](N1)C(=O)OCC(C)(C)C2 value_observed="100 to 1000 nM"
compound="CCn1c(-c2cc(N3CCN(C)CC3)cnc2[C@H](C)OC)c2c3cc(ccc31)-c1csc(n1)C[C@H](NC(=O)[C@H](C(C)C)N(C)C(=O)[C@@H]1OCC[C@@H]1c1ccccc1)C(=O)N1CCC[C@H](N1)C(=O)OCC(C)(C)C2 (atropisomer, axis not shown)" value_observed="10 to 100 nM"
